All values here come from the supplement of paper PMC7877785.

experiment: self-splicing fitness, log relative to wild type (ln ratio); higher = more splicing; Tetrahymena group I intron in knt gene, E. coli kanamycin selection, DiMSum; sequences stand for … in CUCUCU…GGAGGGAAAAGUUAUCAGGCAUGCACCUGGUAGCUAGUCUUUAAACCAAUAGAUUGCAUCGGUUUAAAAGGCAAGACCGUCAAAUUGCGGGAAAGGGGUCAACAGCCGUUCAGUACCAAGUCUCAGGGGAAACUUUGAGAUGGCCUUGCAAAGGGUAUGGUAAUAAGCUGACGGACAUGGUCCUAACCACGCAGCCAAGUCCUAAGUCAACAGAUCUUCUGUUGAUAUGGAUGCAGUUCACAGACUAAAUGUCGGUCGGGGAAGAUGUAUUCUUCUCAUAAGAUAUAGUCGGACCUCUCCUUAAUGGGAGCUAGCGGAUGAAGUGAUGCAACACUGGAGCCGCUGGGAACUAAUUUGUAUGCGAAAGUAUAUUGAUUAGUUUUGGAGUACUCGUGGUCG; conditions: 30 °C;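 also: selection with 25 µg/mL kanamycin versus none on LB agar overnight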
Returns one of Condition met or Condition not met; Condition met when self-splicing fitness (ln) is >= -2.

I'd appreciate it if you could say whether "GGGUAGCAAUAUUACGAUUA" has self-splicing fitness (ln) at least equal to -2.
Condition met

I'd appreciate it if you could say whether "UGAUAGCAAUAUUACGGAGU" has self-splicing fitness (ln) at least equal to -2.
Condition not met

I'd appreciate it if you could say whether "GACUAGCAAUAUUACGUCAA" has self-splicing fitness (ln) at least equal to -2.
Condition not met

I'd appreciate it if you could say whether "GAUUAGCAAUAUUACGCUAA" has self-splicing fitness (ln) at least equal to -2.
Condition not met

I'd appreciate it if you could say whether "CCCCAGCAAUAUUACGUUAU" has self-splicing fitness (ln) at least equal to -2.
Condition not met

I'd appreciate it if you could say whether "CUCUAGCAAUAUUACGUUCU" has self-splicing fitness (ln) at least equal to -2.
Condition not met

I'd appreciate it if you could say whether "AGGGAGCAAUAUUACGCGAA" has self-splicing fitness (ln) at least equal to -2.
Condition met

I'd appreciate it if you could say whether "UAUGAGCAAUAUUACGUUCG" has self-splicing fitness (ln) at least equal to -2.
Condition met

----------
experiment: self-splicing fitness, log relative to wild type (ln ratio); higher = more splicing; Tetrahymena group I intron in knt gene, E. coli kanamycin selection, DiMSum; sequences stand for … in CUCUCU…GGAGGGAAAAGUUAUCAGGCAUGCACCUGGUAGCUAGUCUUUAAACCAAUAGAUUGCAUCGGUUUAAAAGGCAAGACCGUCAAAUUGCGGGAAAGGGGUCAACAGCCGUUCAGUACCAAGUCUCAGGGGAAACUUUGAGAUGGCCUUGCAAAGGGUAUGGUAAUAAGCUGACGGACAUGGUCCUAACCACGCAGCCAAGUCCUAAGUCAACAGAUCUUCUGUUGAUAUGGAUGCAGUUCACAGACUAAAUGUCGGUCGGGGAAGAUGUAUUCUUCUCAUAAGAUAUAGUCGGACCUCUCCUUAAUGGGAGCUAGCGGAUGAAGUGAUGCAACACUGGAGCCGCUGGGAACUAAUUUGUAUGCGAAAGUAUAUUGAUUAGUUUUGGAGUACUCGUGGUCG; conditions: 37 °C
Returns one of condition met or condition not met; condition met when self-splicing fitness (ln) is >= -1.

I'd appreciate it if you could say whether "GCAGAGCAAUAUUACGCAGU" has self-splicing fitness (ln) at least equal to -1.
condition not met

I'd appreciate it if you could say whether "UAAUAGCAAUAUUACGGCGU" has self-splicing fitness (ln) at least equal to -1.
condition not met

I'd appreciate it if you could say whether "CGGGAGCAAUAUUACGUUGG" has self-splicing fitness (ln) at least equal to -1.
condition not met

I'd appreciate it if you could say whether "ACCAAGCAAUAUUACGCUUA" has self-splicing fitness (ln) at least equal to -1.
condition not met

I'd appreciate it if you could say whether "GUCCAGCAAUAUUACGCUAG" has self-splicing fitness (ln) at least equal to -1.
condition met

I'd appreciate it if you could say whether "UCACAGCAAUAUUACGAAAG" has self-splicing fitness (ln) at least equal to -1.
condition not met

I'd appreciate it if you could say whether "GAGGAGCAAUAUUACGAUAC" has self-splicing fitness (ln) at least equal to -1.
condition not met

I'd appreciate it if you could say whether "UACAAGCAAUAUUACGUCAG" has self-splicing fitness (ln) at least equal to -1.
condition not met

I'd appreciate it if you could say whether "GUUUAGCAAUAUUACGUAGU" has self-splicing fitness (ln) at least equal to -1.
condition met

I'd appreciate it if you could say whether "CGUUAGCAAUAUUACGUAAG" has self-splicing fitness (ln) at least equal to -1.
condition met

I'd appreciate it if you could say whether "GGAGAGCAAUAUUACGAACA" has self-splicing fitness (ln) at least equal to -1.
condition not met

I'd appreciate it if you could say whether "CUGGAGCAAUAUUACGAGCA" has self-splicing fitness (ln) at least equal to -1.
condition not met

I'd appreciate it if you could say whether "ACUAAGCAAUAUUACGGCGU" has self-splicing fitness (ln) at least equal to -1.
condition met

I'd appreciate it if you could say whether "GGAGAGCAAUAUUACGUAUC" has self-splicing fitness (ln) at least equal to -1.
condition met

I'd appreciate it if you could say whether "CAUUAGCAAUAUUACGCCUC" has self-splicing fitness (ln) at least equal to -1.
condition not met

I'd appreciate it if you could say whether "UGGUAGCAAUAUUACGCGCU" has self-splicing fitness (ln) at least equal to -1.
condition not met

----------
experiment: self-splicing fitness, log relative to wild type (ln ratio); higher = more splicing; Tetrahymena group I intron in knt gene, E. coli kanamycin selection, DiMSum; sequences stand for … in CUCUCU…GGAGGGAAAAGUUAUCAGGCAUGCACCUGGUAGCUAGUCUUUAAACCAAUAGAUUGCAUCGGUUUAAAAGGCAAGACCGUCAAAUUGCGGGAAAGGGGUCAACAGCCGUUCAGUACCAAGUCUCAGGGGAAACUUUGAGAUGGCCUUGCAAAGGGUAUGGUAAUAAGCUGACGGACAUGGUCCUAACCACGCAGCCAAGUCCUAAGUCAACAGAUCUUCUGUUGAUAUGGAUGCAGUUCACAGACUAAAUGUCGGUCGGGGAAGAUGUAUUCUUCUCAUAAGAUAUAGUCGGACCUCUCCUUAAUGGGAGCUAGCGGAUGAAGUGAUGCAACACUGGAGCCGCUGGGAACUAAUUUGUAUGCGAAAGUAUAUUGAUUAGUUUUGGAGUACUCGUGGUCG; conditions: 30 °C
PROPERTY_NAME: self-splicing fitness (ln)
Number only, please.

Find the measured self-splicing fitness (ln) of "UCUGAGCAAUAUUACGAUAG" and report it.
-3.28

Find the measured self-splicing fitness (ln) of "ACGAAGCAAUAUUACGAGUU" and report it.
-3.04

Find the measured self-splicing fitness (ln) of "GUACAGCAAUAUUACGAAUC" and report it.
-2.65

Find the measured self-splicing fitness (ln) of "UACUAGCAAUAUUACGAGCG" and report it.
-0.191

Find the measured self-splicing fitness (ln) of "UUAUAGCAAUAUUACGGCAU" and report it.
-2.47

Find the measured self-splicing fitness (ln) of "ACCCAGCAAUAUUACGUUGU" and report it.
-0.339

Find the measured self-splicing fitness (ln) of "UAGCAGCAAUAUUACGCUCA" and report it.
-0.152

Find the measured self-splicing fitness (ln) of "AAGAAGCAAUAUUACGUGCA" and report it.
-0.663

Find the measured self-splicing fitness (ln) of "GUAGAGCAAUAUUACGAUUA" and report it.
-0.625

Find the measured self-splicing fitness (ln) of "UAAAAGCAAUAUUACGGCAG" and report it.
-0.504

Find the measured self-splicing fitness (ln) of "UGAUAGCAAUAUUACGUAUU" and report it.
-3.26

Find the measured self-splicing fitness (ln) of "AUUUAGCAAUAUUACGUGCA" and report it.
-1.05

Find the measured self-splicing fitness (ln) of "GGAGAGCAAUAUUACGCCCU" and report it.
-2.57

Find the measured self-splicing fitness (ln) of "CGUGAGCAAUAUUACGACAG" and report it.
-0.792

Find the measured self-splicing fitness (ln) of "UCCAAGCAAUAUUACGGCGC" and report it.
-2.4

Find the measured self-splicing fitness (ln) of "UGUGAGCAAUAUUACGCAGG" and report it.
-3.81

Find the measured self-splicing fitness (ln) of "CACAAGCAAUAUUACGACGG" and report it.
-0.279

Find the measured self-splicing fitness (ln) of "UCGAAGCAAUAUUACGUUGC" and report it.
-3.36

Find the measured self-splicing fitness (ln) of "ACGGAGCAAUAUUACGGGCA" and report it.
-2.06

Find the measured self-splicing fitness (ln) of "UCAGAGCAAUAUUACGACUG" and report it.
-1.67

Find the measured self-splicing fitness (ln) of "AACGAGCAAUAUUACGCUAU" and report it.
-3.9

Find the measured self-splicing fitness (ln) of "CUAAAGCAAUAUUACGGAUA" and report it.
-3.45

Find the measured self-splicing fitness (ln) of "UAUUAGCAAUAUUACGAACU" and report it.
-1.27

Find the measured self-splicing fitness (ln) of "GGACAGCAAUAUUACGCAGA" and report it.
-0.851

Find the measured self-splicing fitness (ln) of "UGUCAGCAAUAUUACGGUAU" and report it.
-2.46

Find the measured self-splicing fitness (ln) of "UGUCAGCAAUAUUACGGUAA" and report it.
-0.649

Find the measured self-splicing fitness (ln) of "ACCCAGCAAUAUUACGCGAU" and report it.
-1.84

Find the measured self-splicing fitness (ln) of "CAGUAGCAAUAUUACGAUCG" and report it.
0.0663

Find the measured self-splicing fitness (ln) of "CAAUAGCAAUAUUACGAAUC" and report it.
-2.66

Find the measured self-splicing fitness (ln) of "AGGUAGCAAUAUUACGUCCA" and report it.
-0.144

Find the measured self-splicing fitness (ln) of "CUUUAGCAAUAUUACGAACA" and report it.
-3.07

Find the measured self-splicing fitness (ln) of "CACUAGCAAUAUUACGUCUU" and report it.
-3.77

Find the measured self-splicing fitness (ln) of "CAGGAGCAAUAUUACGUUAG" and report it.
-1.45

Find the measured self-splicing fitness (ln) of "CUUCAGCAAUAUUACGCCGG" and report it.
-2.73

Find the measured self-splicing fitness (ln) of "AAACAGCAAUAUUACGCUCG" and report it.
-1.11

Find the measured self-splicing fitness (ln) of "AGUCAGCAAUAUUACGGGGU" and report it.
-4.54

Find the measured self-splicing fitness (ln) of "UGCAAGCAAUAUUACGCUCA" and report it.
-0.11

Find the measured self-splicing fitness (ln) of "CCUUAGCAAUAUUACGCGCA" and report it.
-2.45

Find the measured self-splicing fitness (ln) of "UUAUAGCAAUAUUACGCAGG" and report it.
-1.06

Find the measured self-splicing fitness (ln) of "AAGCAGCAAUAUUACGAUAC" and report it.
-2.7

Find the measured self-splicing fitness (ln) of "CACGAGCAAUAUUACGGAGC" and report it.
-2.87

Find the measured self-splicing fitness (ln) of "GCCUAGCAAUAUUACGUAAG" and report it.
-1.83

Find the measured self-splicing fitness (ln) of "CCAUAGCAAUAUUACGAGCC" and report it.
-4.57

Find the measured self-splicing fitness (ln) of "AAUAAGCAAUAUUACGUAUA" and report it.
-1.76

Find the measured self-splicing fitness (ln) of "CCCCAGCAAUAUUACGUAUC" and report it.
-3.88

Find the measured self-splicing fitness (ln) of "AAACAGCAAUAUUACGCUUG" and report it.
-1.9

Find the measured self-splicing fitness (ln) of "GGUCAGCAAUAUUACGUCGA" and report it.
-0.64

Find the measured self-splicing fitness (ln) of "AGUCAGCAAUAUUACGAGGA" and report it.
-2.97

Find the measured self-splicing fitness (ln) of "AGAGAGCAAUAUUACGUAAU" and report it.
-4.18

Find the measured self-splicing fitness (ln) of "GGGCAGCAAUAUUACGCCUA" and report it.
-0.197

Find the measured self-splicing fitness (ln) of "AGGUAGCAAUAUUACGCUAG" and report it.
-4

Find the measured self-splicing fitness (ln) of "GGUUAGCAAUAUUACGUCUG" and report it.
-2.1

Find the measured self-splicing fitness (ln) of "GCCCAGCAAUAUUACGUAGG" and report it.
-2.35

Find the measured self-splicing fitness (ln) of "CCUCAGCAAUAUUACGGGAU" and report it.
-4.21

Find the measured self-splicing fitness (ln) of "AUUUAGCAAUAUUACGAAGA" and report it.
-2.11

Find the measured self-splicing fitness (ln) of "AAAGAGCAAUAUUACGUUCC" and report it.
-3.94

Find the measured self-splicing fitness (ln) of "CGUCAGCAAUAUUACGGGCC" and report it.
-1.25

Find the measured self-splicing fitness (ln) of "UCUUAGCAAUAUUACGAGGA" and report it.
-2.34

Find the measured self-splicing fitness (ln) of "CUCUAGCAAUAUUACGCUGG" and report it.
-3.13

Find the measured self-splicing fitness (ln) of "AGCCAGCAAUAUUACGGUAC" and report it.
-2.97

Find the measured self-splicing fitness (ln) of "AGAUAGCAAUAUUACGUUGA" and report it.
-3.51

Find the measured self-splicing fitness (ln) of "UUGCAGCAAUAUUACGUAAC" and report it.
-3.38

Find the measured self-splicing fitness (ln) of "CGCAAGCAAUAUUACGACCC" and report it.
-2.18

Find the measured self-splicing fitness (ln) of "UACAAGCAAUAUUACGUAAU" and report it.
-2.72

Find the measured self-splicing fitness (ln) of "GCCGAGCAAUAUUACGGUGA" and report it.
-1.49

Find the measured self-splicing fitness (ln) of "GAGUAGCAAUAUUACGAAAU" and report it.
-2.68

Find the measured self-splicing fitness (ln) of "AGCAAGCAAUAUUACGACGA" and report it.
-0.884
